Experiment: PhoP regulon inhibitors, Salmonella typhi PhoP promoter GFP reporter, confirmatory (AID 1850);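 note: 0% = induced wells with vehicle and 100% = uninduced wells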
Details: fluorescence, 4 h, at 50 µM, hits give high values
Hit rate of the full screen: of about 310,000 compounds, about 1,000 (0.32%) were called active. Only a sample is shown. Measured potencies and affinities stand elsewhere.
Endpoint name: inhibition (%)
Express it in %; write the number only.

Read off the recorded inhibition for "O=C(CCS(=O)(=O)c1ccc(Cl)cc1)Nc1nc(-c2ccncc2)cs1" -19.9

Fill in reported inhibition for this entry: "O=C1C(=O)c2ccc(-c3ccccc3)cc2-c2ccccc21" 1.01

Return reported inhibition. Input compound: "O=C(CCS(=O)(=O)Cc1ccc(Cl)cc1)NCCc1ccccc1" -1.47

Supply recorded inhibition for Cc1ccc(C(O)P(=O)(Oc2ccccc2)Oc2ccccc2)cc1 (centres undefined) here. -35.5

Specify inhibition for "Nc1ccc2c(c1)C(=O)C(=O)c1ccccc1-2" and stop. 6.22

Annotate the compound "O=C(O)c1cn(-c2ccc(F)cc2)c(=O)c2ccccc12" with its measured inhibition. -6.8

Report measured inhibition; entry is "CCN(CC)C(=O)c1sc(N2C(=O)Nc3ccccc3N2O)c(C(=O)OC)c1C" -7.07

Respond only with inhibition recorded for "Fc1ccc(Sc2ccccc2CNC2=NCCN2)cc1" -8.62

In one line, give reported inhibition of the entry "O=C(CCc1ccccc1)NNC(=O)c1ccccc1Cl" . 3.05

Query inhibition for "Cc1ccc(SCC(=O)Nc2ccc3c(c2)C(=O)NC3=O)cc1" 5.23

Return inhibition (reported value) for this compound: "O=C(NNC(=S)Nc1ccccc1)c1ccc(O)cc1" 9.42

Specify measured inhibition for "CCOC(=O)c1c(NC(=O)Cn2ccsc2=N)sc(C)c1C" . 14.8

Tell me measured inhibition for "O=C(CCc1ccccc1)NNC(=O)CCc1ccccc1" please. -2.48

Name the recorded inhibition of the compound listed here: "CCc1nnc(NC(=O)[C@@H]2CCCN2S(=O)(=O)c2ccc3c(c2)OCCO3)s1" -7.63

Fill in reported inhibition for this entry: "CN1CCN(c2ccccc2NC(=O)c2ccc(N3CCCC3)c([N+](=O)[O-])c2)CC1" 20.3

// fetch inhibition given entry "S=C(Nc1ccc(Cl)cc1)NC1CCN(Cc2ccccc2)CC1" 1.82

State its inhibition for this compound: CC1=C(C(=O)Nc2ccc(C)cc2C)C(c2cccs2)NC(=S)N1 (centres undefined) 2.73

Return value of inhibition for input "Cc1ccc(NNC(=O)c2cc(C(C)(C)C)nn2Cc2ccccc2)cc1" , no commentary. 1.12

Give a short answer stating reported inhibition for Cc1cc(C)n(CC(O)Cn2cnc3c2c(=O)n(C)c(=O)n3C)n1 (centres undefined) . -7.83

Answer with the recorded inhibition for the compound listed here: O=C(O)COc1ccccc1C(Nc1ccccn1)c1cc(Cl)c2cccnc2c1O (centres undefined) -6.17

For "Cc1cc(C)cc(NC2=C(N)C(=O)c3ccccc3C2=O)c1" , write its inhibition. -9.49

Complete the entry with inhibition for CC(=O)NC1Sc2ccccc2N=C1c1ccccc1 (centres undefined) -15.8

Fill in inhibition for record "S=C(Nc1ccccc1)NC1CCN(Cc2ccccc2)CC1" 2.12

# return recorded inhibition for entry "Cc1ccc(NC(=S)NC2CCN(Cc3ccccc3)CC2)cc1C" 7.22

* * *

Assay: PhoP regulon inhibitors, Salmonella typhi PhoP promoter GFP reporter, confirmatory (AID 1850);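 note: 0% = induced wells with vehicle and 100% = uninduced wells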
Settings: fluorescence, 4 h, at 50 µM, hits give high values
Out of some 310,000 compounds screened, about 1,000 (0.32%) were called active. A selection follows. Entries with a potency or affinity are not part of this list.
Endpoint name: inhibition (%)
Number in %, nothing else.

Specify inhibition for CC(CCc1ccccc1)NC(=O)C1CCCN(C(=O)c2cc3sccc3n2C)C1 (stereo not given) and stop. 1.06

Supply recorded inhibition for CSc1ccccc1C(=O)C1CCCN(C(=O)c2csnn2)C1 (stereo not given) here. -11.4

Write down inhibition measured for item "Cc1ccc(C(=O)N/C(=C\c2ccccc2)C(=O)NCCCn2ccnc2)cc1" -1.23

For "Cc1cc(NS(=O)(=O)c2ccc(NC(=O)Nc3ccccc3)cc2)no1" , write its inhibition. -1.36

Specify reported inhibition for the compound shown: "CC(C)n1cnc2c(Nc3cccc(F)c3)nc(NCCO)nc21" -14.7

For the compound CCCCOC(=O)C1CCCC(C(=O)OCCCC)N1 (stereo not given) , give its measured inhibition value. 2.58

Give the reported inhibition for this compound. "CCOC(=O)[C@@H]1[C@H]2COc3cc(OC)ccc3[C@H]2N2C(=O)N(c3ccc(C(F)(F)F)cc3)C(=O)[C@@]12C" -14.6

Give the reported inhibition for this compound. "O=C(CCc1nnc(Cc2ccc(-c3ccccc3)cc2)o1)NCCc1cccnc1" -5.62

Indicate its recorded inhibition; the compound in question is "CCCCCCCCOC(=O)C[N+](C)(C)C/C=C(/C)Cl" -1.52

Give recorded inhibition. "Cc1cc(NS(=O)(=O)c2ccc(NC(=O)Nc3cccc(C(F)(F)F)c3)cc2)no1" -2.04
